Tested on: Aβ40 in conditioned medium of cells stably expressing Amyloid Precursor Protein (APP)
Test: In vitro BACE cell-based assay (HEK cell assay, Aβ40 sandwich ELISA)
Conditions: Homo sapiens, HEK293; average IC50; read-out: BACE1 cell assay IC50
measurementLabel: IC50 (nM)
Unit nM implied. Number only.

Some compounds with recorded IC50:
C[C@]1(c2cc(Nc3nccc4cc(Cl)cnc34)ccc2F)N=C(N)[C@@]2(CF)CC[C@@H]1S2(=O)=O [Example 58]
46
Cc1cc(Cl)cnc1C(=O)Nc1ccc(F)c([C@@]2(C)N=C(N)[C@]3(CF)CC[C@H]2S3(=O)=O)c1 [Example 89]
53
C[C@]1(c2cc(NC(=O)c3c(F)cc(Br)cc3F)ccc2F)N=C(N)[C@@]2(C)CC[C@@H]1S2(=O)=O [Example 125]
65
COc1cnc2c(Nc3ccc(F)c([C@@]4(C)N=C(N)[C@]5(C)CC[C@H]4S5(=O)=O)c3)ncnc2c1 [Example 133]
26
C[C@]1(c2cc(Nc3nccc4cc(C#N)cnc34)ccc2F)N=C(N)[C@@]2(CF)CC[C@@H]1S2(=O)=O [Example 100]
4

Which IC50 value is on record for CCc1ccc(C(=O)Nc2ccc(F)c([C@@]3(C)N=C(N)[C@@]4(CF)CC[C@@H]3S4(=O)=O)c2)nc1 [Example 101] ?
12

Which IC50 value is on record for Cc1cnc(COc2cnc3c(Nc4ccc(F)c([C@@]5(C)N=C(N)[C@@]6(C)CC[C@@H]5S6(=O)=O)c4)nccc3n2)o1 [Example 146] ?
1

====

Biological target: UniProt:P56817
Sequence (P56817 46-501, species assumed): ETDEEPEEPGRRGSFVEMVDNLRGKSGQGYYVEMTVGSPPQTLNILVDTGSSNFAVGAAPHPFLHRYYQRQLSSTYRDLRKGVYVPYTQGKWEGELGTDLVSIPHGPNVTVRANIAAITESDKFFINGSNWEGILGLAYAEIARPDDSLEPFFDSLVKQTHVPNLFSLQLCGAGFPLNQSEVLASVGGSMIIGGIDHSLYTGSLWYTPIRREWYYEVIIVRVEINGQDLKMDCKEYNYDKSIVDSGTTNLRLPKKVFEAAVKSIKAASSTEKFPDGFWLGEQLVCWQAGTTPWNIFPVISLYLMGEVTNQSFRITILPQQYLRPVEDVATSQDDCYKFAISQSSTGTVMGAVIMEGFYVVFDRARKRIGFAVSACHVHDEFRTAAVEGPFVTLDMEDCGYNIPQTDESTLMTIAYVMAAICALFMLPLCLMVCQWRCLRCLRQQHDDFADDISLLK
Assay: In vitro enzymatic BACE FRET assay
Format: biochemical
Conditions: average IC50; read-out: BACE1 Enzyme assay IC50
log10(IC50) values for the compounds below.
Could you please treat all values as log10 of IC50 in nM?

C[C@]1(c2cc(NC(=O)c3ccc(Cl)cn3)ccc2F)N=C(N)[C@@]2(CF)CC[C@@H]1S2(=O)=O [Example 77]
0.48

Which log10(IC50) value is on record for C[C@]12CC[C@H]([C@@](C)(c3cc(Nc4nccc5cc(C#N)cnc45)ccc3F)N=C1N)S2(=O)=O [Example 85] ?
1.11

Which log10(IC50) value is on record for COc1cnc(C(=O)Nc2ccc(F)c([C@@]3(C)N=C(N)[C@@]4(C)CC[C@@H]3S4(=O)=O)c2)cn1 [Example 61] ?
0.70

Which log10(IC50) value is on record for C[C@]1(c2cc(Nc3nccc4nc(OCC(F)(F)F)cnc34)ccc2F)N=C(N)[C@@]2(CF)CC[C@@H]1S2(=O)=O [Example 112] ?
0.90

Which log10(IC50) value is on record for C#CCOc1cnc2c(Nc3ccc(F)c([C@@]4(C)N=C(N)[C@@]5(CF)CC[C@@H]4S5(=O)=O)c3)nccc2n1 [Example 46] ?
0.00

Which log10(IC50) value is on record for C[C@]1(c2cc(NC(=O)c3ccc(C#N)cn3)ccc2F)N=C(N)[C@@]2(CF)CC[C@@H]1S2(=O)=O [Example 111] ?
0.30

Which log10(IC50) value is on record for COc1cnc(C(=O)Nc2ccc(F)c([C@@]3(C)N=C(N)[C@@]4(C)CC[C@@H]3S4(=O)=O)c2)c(C)n1 [Example 79] ?
0.95

Which log10(IC50) value is on record for C[C@]1(c2cc(Nc3nccc4[nH]c(=O)cnc34)ccc2F)N=C(N)[C@@]2(CF)CC[C@@H]1S2(=O)=O [Example 148] ?
1.20

Which log10(IC50) value is on record for C[C@]1(c2cc(NC(=O)c3c(F)cc(Br)cc3F)ccc2F)N=C(N)[C@@]2(C)CC[C@@H]1S2(=O)=O [Example 125] ?
2.01

Which log10(IC50) value is on record for COc1cnc2c(Nc3ccc(F)c([C@@]4(C)N=C(N)[C@@]5(CF)CC[C@@H]4S5(=O)=O)c3)nccc2c1 [Example 56] ?
1.27

Which log10(IC50) value is on record for COc1cnc2c(Nc3ccc(F)c([C@@]4(C)N=C(N)[C@@]5(C)CC[C@@H]4S5(=O)=O)c3)ncnc2c1 [Example 132] ?
0.78

Which log10(IC50) value is on record for COc1ccc(C(=O)Nc2ccc(F)c([C@@]3(C)N=C(N)[C@]4(C)CC[C@H]3S4(=O)=O)c2)c(F)c1 [Example 124] ?
2.77

Which log10(IC50) value is on record for C[C@]12CC[C@H]([C@@](C)(c3cc(NC(=O)c4c(F)cc(Br)cc4F)ccc3F)N=C1N)S2(=O)=O [Example 126] ?
2.50

Which log10(IC50) value is on record for Cn1ccc(COc2cnc3c(Nc4ccc(F)c([C@@]5(C)N=C(N)[C@@]6(C)CC[C@@H]5S6(=O)=O)c4)nccc3n2)n1 [Example 147] ?
0.30

Data origin, for the record: patent US9096615B2
